Assay: yeast display, Sf9 membrane polyspecificity reagent, FACS + sequencing; frameworks hold sequencing errors
PROPERTY LABEL: polyreactivity (PSR sort gate)

- ITEM SEQUENCE: "QVQLVESGGGLVQAGGSLRLSCAAYGFIFKFYAMGWYRQAPGKERELVAAITSGGGRTYYADSVKGRFPISRDNAKNTVYLQMNSLKAQDSAGYYCAVDYLQYYYKKHYYGGQGTQVTVSS"
  PROPERTY LABEL: "polyreactivity (PSR sort gate)"
  EXPERIMENTAL VALUE: "high polyreactivity"
- ITEM SEQUENCE: "QVQLVESGGGLVQAGGSLRLSCAASGRIFYDYAMGWYRQAPGKERELVAAISGSGGSTYYADSVKGRFTISRDKAKNTVYLQMNSLQPEDTEVYYCNRYTTRYYPGGDYWGHGTQVTVSS"
  PROPERTY LABEL: "polyreactivity (PSR sort gate)"
  EXPERIMENTAL VALUE: "high polyreactivity"

----------
Assay: yeast display, Sf9 membrane polyspecificity reagent, FACS + sequencing; frameworks hold sequencing errors
PROPERTY LABEL: polyreactivity (PSR sort gate)

- ITEM SEQUENCE: "QVQLVESGGGLVQAGGSLRLSCAASGITFYRYAMGWYRQSPGKETQLVAAIRRAGSTYYADSVKGRFTISRDNAKNTVYLQMNSLKPEDTAVYYCAAPYRLEPLSTHGSWGQGTQVTVSS"
  PROPERTY LABEL: "polyreactivity (PSR sort gate)"
  EXPERIMENTAL VALUE: "high polyreactivity"
- ITEM SEQUENCE: "QVQLVESGGGLVQAGGSLRLSCAASGRIFGQYAMGWYRQAPGKERELVAAITYSTGSTSYADSVKGRFTISRDNAKNTVYLQMNSLKPEDTAVYYCAAGGGRWYYPKRGSPYGFYYWGLGTQVTVSS"
  PROPERTY LABEL: "polyreactivity (PSR sort gate)"
  EXPERIMENTAL VALUE: "high polyreactivity"
- ITEM SEQUENCE: "QVHLVESGGGLVQAGGSLRLSCAASGSIFYWNAMGWYRQAPGKESELVATISSRGGRTSYADSVKGRFTLSRDNAKNTVYLQMNSLQPEDTAVDYCAKSIDGWYWRRRRYDYWGQGTQVTVSS"
  PROPERTY LABEL: "polyreactivity (PSR sort gate)"
  EXPERIMENTAL VALUE: "low polyreactivity"
- ITEM SEQUENCE: "QVQLVESGGGLVQAGGSLRLSCAASGSTFGVSAMGWSRQAPGKERELVAAISGRGGRTYYADSVKGRFTISRDNAKNTVYLLMNSLKPEDTAVYYFAVVGSAYQSRYDYWGQGTQVTVSS"
  PROPERTY LABEL: "polyreactivity (PSR sort gate)"
  EXPERIMENTAL VALUE: "high polyreactivity"
- ITEM SEQUENCE: "QVQLVESGGGLVQAGGSLRLSCAASGSIIAGYTMGWYRQAPGKERELVAGIRRGGSTNYADSVKGRFTISRDNAKNTVYLQMNSLKPEDTAVYYCAAYYRLDYDYWGQGTQVTVSS"
  PROPERTY LABEL: "polyreactivity (PSR sort gate)"
  EXPERIMENTAL VALUE: "high polyreactivity"
- ITEM SEQUENCE: "QVQLEESGGGLVQAGGSLRLSCAASGFTFIRYAMGWYRQAPGTERELVAAIRGTGTSTYYADSVKGRFTISRDNAKNTVYLQMNSLKPEDTAVYYCNKVAGRSPYTRYDYWGQGTQVTVSS"
  PROPERTY LABEL: "polyreactivity (PSR sort gate)"
  EXPERIMENTAL VALUE: "low polyreactivity"
- ITEM SEQUENCE: "QVQLVESGGGLVQAGGSLRLSCAASGFTFTYNDMGWYRQAPGKEREFVAAISSTGGSTYYADSVKGRFTISRDNAKNTVYLQMNSLIPEDTAVYYCAAEDSWYWDAWFDYWGQGTQVTVSS"
  PROPERTY LABEL: "polyreactivity (PSR sort gate)"
  EXPERIMENTAL VALUE: "low polyreactivity"
- ITEM SEQUENCE: "QVQLVESGGGLVQAGGSLRLSCAASGRIFATYAMGWYRQAPGKERELVARITFTSGSTYYADSVKGRFTISRDNAKNTVYLQMNSLKPEDTAVYYCAAPWSVTRTSFDYWGQGTQVTVSS"
  PROPERTY LABEL: "polyreactivity (PSR sort gate)"
  EXPERIMENTAL VALUE: "high polyreactivity"
- ITEM SEQUENCE: "QVQLVESGGGLVQAGGSLRLSCAASVSIFRVYALGWYRQEPGKERELVAAITNGGNTNYADSVKGRFTISRDNAKNTVYLQMYSLKPVDTAVYYCAATLNRYWFRLYYYLGQGTQVTVSS"
  PROPERTY LABEL: "polyreactivity (PSR sort gate)"
  EXPERIMENTAL VALUE: "high polyreactivity"
- ITEM SEQUENCE: "QVQLVESGGGLVQAGGSLRLSCAAYGRIFSSYAMGWYRQAPGKERELVAAISSSGGRTYYADSVKGRFTISRDNAKNTVYLQMNRLKPEDTAVYYFARVTTGGYEYWGQGSQVTVSS"
  PROPERTY LABEL: "polyreactivity (PSR sort gate)"
  EXPERIMENTAL VALUE: "high polyreactivity"
- ITEM SEQUENCE: "QVQLVESGGGLVQAGGSLRLSCAASGPTNAMGWYRQAPGKERELVAAITKSGGSTYYADSVKGRFTISRDNAKNTVYLLMNSLKPEDTAVYYCALILRHTAYYYWGQGTQVTVSS"
  PROPERTY LABEL: "polyreactivity (PSR sort gate)"
  EXPERIMENTAL VALUE: "high polyreactivity"
